The values you see were collected from ChEMBL document CHEMBL2062518.

Tested on: Acinetobacter baumannii
experiment summary: Antimicrobial activity against Acinetobacter baumannii ATCC 19606 after 24 to 48 hrs
Type: functional
run conditions: ATCC 19606 = CIP 70.34 = JCM 6841
MIC99 values, listed per item

Consider the reported MIC99 for these compounds:
O=CNCCCC[C@H](NC(=O)[C@H]1COC(c2ccccc2O)=N1)C(=O)O : > 100 µM
O=CNCCCC[C@@H](NC(=O)[C@H]1COC(c2ccccc2O)=N1)C(=O)O : > 100 µM
O=CNCCCC[C@@H](NC(=O)[C@@H]1COC(c2ccccc2O)=N1)C(=O)O : > 100 µM

Attention now turns to another entry.
Quick note, MIC99 for `O=CNCCCC[C@H](NC(=O)[C@@H]1COC(c2ccccc2O)=N1)C(=O)O` landed at > 100 µM

====

System: Mycolicibacterium smegmatis
experiment summary: Antimicrobial activity against Mycobacterium smegmatis ATCC 607 after 24 to 48 hrs
Type: functional
property measured: MIC99

O=CNCCCC[C@H](NC(=O)[C@H]1COC(c2ccccc2O)=N1)C(=O)O : > 100 µM

Record `O=CNCCCC[C@H](NC(=O)[C@@H]1COC(c2ccccc2O)=N1)C(=O)O` . Reported MIC99: > 100 µM

====

Test system: Staphylococcus aureus
experiment summary: Antimicrobial activity against methicillin-resistant Staphylococcus aureus ATCC 43300 after 24 to 48 hrs
Type: functional
Listed here: items and their measured MIC99.

Sample records with MIC99:
O=CNCCCC[C@H](NC(=O)[C@H]1COC(c2ccccc2O)=N1)C(=O)O : > 100 µM
O=CNCCCCC(NC(=O)C1COC(c2ccccc2O)=N1)C(=O)O (stereo not given) [TRANSVALENCIN Z] : 1 µg/mL
O=CNCCCC[C@@H](NC(=O)[C@H]1COC(c2ccccc2O)=N1)C(=O)O : > 100 µM
O=CNCCCC[C@H](NC(=O)[C@@H]1COC(c2ccccc2O)=N1)C(=O)O : > 100 µM

Switching to the query record.
Looking up `O=CNCCCC[C@@H](NC(=O)[C@@H]1COC(c2ccccc2O)=N1)C(=O)O` , I see its MIC99 listed as > 100 µM

====

System: Bacillus subtilis
experiment summary: Antimicrobial activity against Bacillus subtilis ATCC 6633 after 24 to 48 hrs
Format: functional
property measured: MIC99

The following compounds have reported results that may help.
O=CNCCCC[C@H](NC(=O)[C@@H]1COC(c2ccccc2O)=N1)C(=O)O : > 100 µM
O=CNCCCC[C@H](NC(=O)[C@H]1COC(c2ccccc2O)=N1)C(=O)O : > 100 µM
O=CNCCCC[C@@H](NC(=O)[C@H]1COC(c2ccccc2O)=N1)C(=O)O : > 100 µM
O=CNCCCCC(NC(=O)C1COC(c2ccccc2O)=N1)C(=O)O (stereo not given) [TRANSVALENCIN Z] : 16 µg/mL

Please examine the following record next.
Query `O=CNCCCC[C@@H](NC(=O)[C@@H]1COC(c2ccccc2O)=N1)C(=O)O` yields MIC99 of > 100 µM

====

System: Mycolicibacterium smegmatis
experiment summary: Antimicrobial activity against Mycobacterium smegmatis ATCC 607 after 24 to 48 hrs
Format: functional
property measured: MIC99

Completed entries (count: 2):
O=CNCCCC[C@@H](NC(=O)[C@H]1COC(c2ccccc2O)=N1)C(=O)O : > 100 µM
O=CNCCCC[C@@H](NC(=O)[C@@H]1COC(c2ccccc2O)=N1)C(=O)O : > 100 µM

Moving on to another compound below.
MIC99 measured on O=CNCCCCC(NC(=O)C1COC(c2ccccc2O)=N1)C(=O)O (stereo not drawn) [TRANSVALENCIN Z] = 0.125 µg/mL
